- Study Target: GST-LRRK2 WD40 G2385R (human) (UniProt Q5S007)
- Sequence (Q5S007 whole entry G2385R, the tested form may be a part): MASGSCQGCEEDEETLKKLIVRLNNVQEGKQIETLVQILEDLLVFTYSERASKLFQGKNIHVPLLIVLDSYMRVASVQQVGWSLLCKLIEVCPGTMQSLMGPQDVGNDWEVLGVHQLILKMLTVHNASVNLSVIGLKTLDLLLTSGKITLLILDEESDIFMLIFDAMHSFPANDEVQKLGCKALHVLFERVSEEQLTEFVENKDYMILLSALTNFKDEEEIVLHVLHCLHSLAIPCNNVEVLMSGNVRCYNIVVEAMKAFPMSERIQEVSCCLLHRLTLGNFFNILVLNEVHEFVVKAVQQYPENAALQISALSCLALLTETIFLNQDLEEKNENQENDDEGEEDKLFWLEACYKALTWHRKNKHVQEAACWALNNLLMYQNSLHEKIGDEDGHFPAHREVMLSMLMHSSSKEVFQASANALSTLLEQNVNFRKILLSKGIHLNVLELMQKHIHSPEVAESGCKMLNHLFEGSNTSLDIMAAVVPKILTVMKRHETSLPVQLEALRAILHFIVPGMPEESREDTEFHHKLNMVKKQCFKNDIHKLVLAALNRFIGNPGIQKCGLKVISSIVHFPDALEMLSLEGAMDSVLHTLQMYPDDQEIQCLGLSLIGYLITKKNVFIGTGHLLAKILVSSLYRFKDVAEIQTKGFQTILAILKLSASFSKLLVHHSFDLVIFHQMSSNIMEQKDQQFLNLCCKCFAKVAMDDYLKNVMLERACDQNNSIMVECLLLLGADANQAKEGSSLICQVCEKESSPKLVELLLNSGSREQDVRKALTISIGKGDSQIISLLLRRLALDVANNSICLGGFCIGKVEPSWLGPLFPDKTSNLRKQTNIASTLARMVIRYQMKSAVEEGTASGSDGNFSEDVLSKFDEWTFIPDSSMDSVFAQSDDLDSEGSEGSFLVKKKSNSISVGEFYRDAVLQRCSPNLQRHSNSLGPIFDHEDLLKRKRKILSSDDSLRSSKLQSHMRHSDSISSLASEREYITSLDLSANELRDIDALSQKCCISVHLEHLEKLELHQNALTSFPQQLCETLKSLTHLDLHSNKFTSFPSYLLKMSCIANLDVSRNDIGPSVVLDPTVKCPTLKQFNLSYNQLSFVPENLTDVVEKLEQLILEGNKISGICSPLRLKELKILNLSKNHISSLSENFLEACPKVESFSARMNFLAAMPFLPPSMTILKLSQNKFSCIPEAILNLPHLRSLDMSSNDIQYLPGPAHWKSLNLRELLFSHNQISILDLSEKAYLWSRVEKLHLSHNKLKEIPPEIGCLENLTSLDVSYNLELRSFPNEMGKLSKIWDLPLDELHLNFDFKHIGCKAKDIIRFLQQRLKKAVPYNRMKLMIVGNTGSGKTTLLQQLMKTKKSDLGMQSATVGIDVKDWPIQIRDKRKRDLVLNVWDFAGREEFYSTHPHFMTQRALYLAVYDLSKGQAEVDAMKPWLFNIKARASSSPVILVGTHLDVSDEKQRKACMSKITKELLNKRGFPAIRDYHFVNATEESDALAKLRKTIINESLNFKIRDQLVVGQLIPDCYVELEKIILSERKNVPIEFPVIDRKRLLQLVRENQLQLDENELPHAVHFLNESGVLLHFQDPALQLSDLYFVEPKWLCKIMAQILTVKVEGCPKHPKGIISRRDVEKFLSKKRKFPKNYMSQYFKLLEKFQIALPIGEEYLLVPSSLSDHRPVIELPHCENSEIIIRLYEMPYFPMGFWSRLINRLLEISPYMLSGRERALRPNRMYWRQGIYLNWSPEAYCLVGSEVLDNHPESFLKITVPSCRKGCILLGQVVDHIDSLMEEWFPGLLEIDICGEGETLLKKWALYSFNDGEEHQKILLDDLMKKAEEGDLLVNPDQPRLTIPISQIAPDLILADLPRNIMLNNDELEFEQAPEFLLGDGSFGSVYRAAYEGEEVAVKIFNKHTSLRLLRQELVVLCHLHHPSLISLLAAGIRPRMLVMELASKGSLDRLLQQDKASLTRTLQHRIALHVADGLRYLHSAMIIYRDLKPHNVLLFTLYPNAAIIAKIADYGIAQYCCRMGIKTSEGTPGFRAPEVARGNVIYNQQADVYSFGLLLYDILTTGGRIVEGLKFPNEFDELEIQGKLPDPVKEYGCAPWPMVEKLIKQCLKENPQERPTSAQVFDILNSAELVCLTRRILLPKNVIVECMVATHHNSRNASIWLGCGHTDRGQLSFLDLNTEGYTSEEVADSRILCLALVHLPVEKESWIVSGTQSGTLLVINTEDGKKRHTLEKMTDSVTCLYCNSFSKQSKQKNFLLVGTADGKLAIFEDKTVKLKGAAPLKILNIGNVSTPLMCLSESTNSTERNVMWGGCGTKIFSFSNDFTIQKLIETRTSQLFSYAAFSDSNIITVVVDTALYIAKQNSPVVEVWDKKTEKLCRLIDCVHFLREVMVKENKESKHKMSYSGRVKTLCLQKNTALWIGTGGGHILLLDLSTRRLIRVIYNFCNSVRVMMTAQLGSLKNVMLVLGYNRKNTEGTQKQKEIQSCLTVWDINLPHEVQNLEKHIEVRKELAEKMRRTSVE
- Protocol Details: affinity purification with mass spectrometry; 5 µg GST fusion protein on glutathione-Sepharose incubated with adult mouse brain lysate or crude SV fraction (LP2) (1 mg protein) 2 h at 4 °C; washes 150 mM NaCl, 2 mM EDTA, 50 mM Tris-HCl, 0.2% Triton, pH 7.4; LC-MS/MS with label-free quantification, 4 samples per condition (GST-control, GST-WD40, GST-WD40-G2385R)
Readout: G2385R/WT (ratio of abundance in G2385R versus wild-type bait)

The measured G2385R/WT (ratio of abundance in G2385R versus wild-type bait) associated with 14-3-3 protein theta (natural protein) MEKTELIQKAKLAEQAERYDDMATCMKAVTEQGAELSNEERNLLSVAYKNVVGGRRSAWRVISSIEQKTDTSDKKLQLIKDYREKVESELRSICTTVLELLDKYLIANATNPESKVFYLKMKGDYFRYLAEVACGDDRKQTIENSQGAYQEAFDISKKEMQPTHPIRLGLALNFSVFYYEILNNPELACTLAKTAFDEAIAELDTLNEDSYKDSTLIMQLLRDNLTLWTSDSAGEECDAAEGAEN reads 0.35

Cited source for all entries: paper PMC5511190
